The values you see were collected from patent US20240016931A1.

TESTED ON: T1, Fc-tagged human TSLP antigen (huTSLP-Fc) (human, biotin-labeled in the blocking assays)
T1 construct: whole entry named; also called recombinant human TSLP-Fc
ASSAY PROTOCOL: competition ELISA: biotin-huTSLP-Fc binding to coated human-TSLPR-Fc-ECD
pIC50: −log10 of the molar value.
Overview of recorded pIC50 for various binders
ENDPOINT LABEL: pIC50

• hu3-13 (antibody, human IgG1, kappa, V domains shown, IgG1-YTE, kappa; also called hu3VH2-H110Y + hu3VL6) VH: EVQLVQSGAEVKKPGASVKVSCKASGYTFTDDYMNWVRQAPGQRLEWMGIISPYNGGTSYNQKFKGRVTLTVDKSASTAYMELSSLRSEDTAVYYCAREDYDYDGYAMDYWGQGTTVTVSS VL: EIVLTQSPATLSLSPGERATLSCRASSSVSYMHWYQQKPGQAPRPWIYATSNLASGVPARFSGSGSGTSYTLTISRLEPEDFAVYYCQQSDSGREFGGGTKVEIKR = 9.30
• hu179-33 (antibody, human IgG1, kappa, V domains shown, IgG1-YTE, kappa; also called hu179VH3-N55V + hu179VL8-N53E) VH: EVQLVQSGAEVKKPGSSVKVSCKASGYTFSNYLIEWVRQAPGQGLEWIGVIDPGVGDTNYNENFKGRATLTADKSTSTAYIELSSLRSEDTAVYYCAREDNTGTAFDYWGQGTTVTVSS VL: SIVMTQTPLSLSVTPGQPASISCKASQSVSSDVTWYLQKPGQSPQLLIYYVSEHYTGVPDRFSGSGYGTDFTLKISRVEAEDVGVYYCQQHHRFPLTFGQGTKLEIKR = 9.30
• hu199-36 (antibody, human IgG1, kappa, V domains shown, IgG1-YTE, kappa) VH: EVQLVQSGAEVKKPGASVKVSCKASGYTFTTYWMHWVKQAPGQGLEWMGMIDPSDSETTLIQKFKDKVTLTVDKSTSTAYMELSSLRSEDTAVYYCARTLDGYYDYWGQGTTVTVSS VL: DIQMTQSPSSLSASVGDRVTITCRASENIYSYLAWYQQKPGKSPQLLVYFAKTLAEGVPSRFSGSVSGTQFTLTISSLQPEDFATYYCQHHYGTPWTFGGGTKVEIKR = 9.24
• hu119-30 (antibody, human IgG1, kappa, V domains shown, IgG1-YTE, kappa; also called hu119VH8 + hu119VL6-N31S) VH: EAQLVQSGAEVKKPGSSVKVSCKASGFTFSTYNMHWVRQAPGQGLEWIGAIYPGNGETSYNQKFKDRATLTVDKSTRTAYMELSSLRSEDTAVYYCAREDDYGEGYFDVWGQGTTVTVSS VL: DIVLTQSPATLSLSPGERATLSCRASESVDSSGLSFMHWYQQKPGQPPRLLLYRASNLGSGIPARFSGSGSGTDFTLTISSLEPEDFAVYYCQQINTDPLTFGQGTKLEIKR = 9.28
